Sourced from the nanobody polyreactivity screen of Harvey et al. (2022)

# METHOD SUMMARY: yeast display, Sf9 membrane polyspecificity reagent, FACS + sequencing; frameworks hold sequencing errors
QUANTITY MEASURED: polyreactivity (PSR sort gate)

{"RESIDUES": "QVQLVESGGVLVQAGGSLRLSCAASGSIFFYYAMGWYRQAPGKERELVAAITFTGGSTYYADSVKGRFTISRDNAKNTVYLQMKSLKPEDTAVYYCAADWYYGDEYEYWGQGTQVTVSS", "RESULT": "high polyreactivity"}
{"RESIDUES": "QFQLVESGGCLVQAGGSLRLSCAASGFIFLQYAMGWYRQAPGKETELGAAITSGGGTNYEDSVKGRFTISRDNAKNTVYLPMNSLKPEDTAGYNCAARTWPWVLGATQDDYWGQGTQVTVSS", "RESULT": "low polyreactivity"}
{"RESIDUES": "QVQLVESGGGLVQAGGSLRLSCAASGFTSWQYAMGWYRQAPGKERELVAAISVSGASTYYADSVKGRFTISRDNAKNTVYLQMNSLKPEDTAVYYCAAAYVRYPTTRYYYWGQGTQVTVSS", "RESULT": "high polyreactivity"}
{"RESIDUES": "QVQLEESGGGLVQAGGSLRLSCAASGLIFVDNAMGGSRQATGKERALVASIDSGGSTNYADSVKGRFTISRDNAKNTFYLQMNSLKPEDTAVYYCSADWIYAPWYYQESVEYYYWGQGTQVTVSS", "RESULT": "low polyreactivity"}
{"RESIDUES": "QVQLVESGGGLVQAGGSLRLSCAASGITFSLYAMGWYRQAPGKERELVAAITRSGGSTYYADSVKGRFTISRDNAKNTVYLQMNSLKPEDTAVYYCAAKRPGVRRYYYWGQGTQVTVSS", "RESULT": "high polyreactivity"}
{"RESIDUES": "QVQLVESGGGLVQAGGSLRLSCAASGITFYWYAMGWYRQAPGKDRELVASITGNGGGTSYADSVKGRFTIARDNAKNTVYLQMNSLKPEDTAVYYCNTSVGGKEYDSWGQGTQVTVTS", "RESULT": "low polyreactivity"}
{"RESIDUES": "QVQLVESGGGLVQAGGSLRLSCAASGSTFVPNAMGWYRQAPGKERELVAAITSGGITNYADSVQGRFTISRDNAKNTVYLQMNSLKPEDTAVYYCAVLYYILAPGYDYWGQGTQVTVSS", "RESULT": "low polyreactivity"}
{"RESIDUES": "QVQLVESGGGLVQAGGSLRLRCAATGFIFSSYAMGWYRQAPGKERELVAAINRSGSTYYADSVKGRFTISRDNAKNTVYLQMNSLKPEDTADYYCNARRYYYRYRNYDYWGQGTQVTVSS", "RESULT": "high polyreactivity"}
{"RESIDUES": "QVQLEESGGGLVQAGGSLRLSCAASGNTFYLYAMGWYRQAPGKERELVASITGGTRTNYADSVKGRFTISRDNAKNTVYLQMNSLKPEDTAVYYCAKTYPRTVGKYLSRGGYYYWGQGTQVTVSS", "RESULT": "high polyreactivity"}
{"RESIDUES": "QLQHVESGGGLVQAGGSLRLSCAASGYIFPVNAMGSYRQAPGKERELVASLTSGGSTYYADSVKGRFTISRDNAKNTVYLQMNSLKPEDTAVYYCAAQLGYAKPYVYGEWYYYWGQGNQVTVSS", "RESULT": "low polyreactivity"}
{"RESIDUES": "QVQLVESGGGLVQAGGSLRLSCAASGFIGWYAMGWYRQAPGNEREFVAAISASGGSTYYADSVKGRFTISRDNAKNTVYLQMNSLKPEETAVYYCAAYYRAYNPRRFYYWGQGTQVTVSS", "RESULT": "high polyreactivity"}
